The values you see were collected from ChEMBL document CHEMBL1150536.

Listed molecules paired with reported IC50
SYSTEM_NAME: Glutamate receptor ionotropic, NMDA 2C (Rattus norvegicus, UniProt Q00961)
Sequence (Q00961 whole entry): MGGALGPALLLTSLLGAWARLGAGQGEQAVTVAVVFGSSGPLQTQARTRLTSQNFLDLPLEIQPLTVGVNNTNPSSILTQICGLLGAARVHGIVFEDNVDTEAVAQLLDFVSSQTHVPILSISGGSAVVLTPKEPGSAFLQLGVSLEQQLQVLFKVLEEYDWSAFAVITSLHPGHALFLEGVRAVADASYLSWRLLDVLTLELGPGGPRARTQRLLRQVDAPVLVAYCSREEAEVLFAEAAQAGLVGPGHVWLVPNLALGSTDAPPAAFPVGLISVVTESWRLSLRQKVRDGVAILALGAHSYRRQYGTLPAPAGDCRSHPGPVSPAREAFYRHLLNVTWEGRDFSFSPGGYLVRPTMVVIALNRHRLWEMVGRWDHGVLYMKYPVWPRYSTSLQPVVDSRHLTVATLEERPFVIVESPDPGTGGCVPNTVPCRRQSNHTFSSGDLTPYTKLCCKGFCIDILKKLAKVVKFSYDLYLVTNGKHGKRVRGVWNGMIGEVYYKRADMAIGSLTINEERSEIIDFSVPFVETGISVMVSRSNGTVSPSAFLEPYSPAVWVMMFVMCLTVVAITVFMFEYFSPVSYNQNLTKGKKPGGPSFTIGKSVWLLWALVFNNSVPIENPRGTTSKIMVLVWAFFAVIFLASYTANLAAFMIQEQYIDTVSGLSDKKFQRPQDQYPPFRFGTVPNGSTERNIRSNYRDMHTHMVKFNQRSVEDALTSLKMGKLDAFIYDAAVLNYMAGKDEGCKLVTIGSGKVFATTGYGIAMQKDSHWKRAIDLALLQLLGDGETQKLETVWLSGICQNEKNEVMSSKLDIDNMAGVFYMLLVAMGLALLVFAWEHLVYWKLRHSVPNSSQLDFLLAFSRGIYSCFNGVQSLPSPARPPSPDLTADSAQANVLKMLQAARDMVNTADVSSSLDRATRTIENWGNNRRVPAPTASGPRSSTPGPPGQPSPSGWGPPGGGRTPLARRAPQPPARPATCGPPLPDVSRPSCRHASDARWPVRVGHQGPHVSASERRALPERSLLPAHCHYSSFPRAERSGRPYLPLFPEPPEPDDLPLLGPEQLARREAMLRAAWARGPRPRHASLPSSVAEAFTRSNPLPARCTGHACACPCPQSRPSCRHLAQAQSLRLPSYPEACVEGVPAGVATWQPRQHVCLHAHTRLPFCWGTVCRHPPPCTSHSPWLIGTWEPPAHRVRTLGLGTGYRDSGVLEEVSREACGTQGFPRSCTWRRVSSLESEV
METHOD: Tested for the ability to displace [3H]CGS-19,755 (10 nM) binding in rat forebrain membranes for NMDA receptor

O=C(O)[C@@H]1C[C@@H](c2nnn[nH]2)CN1; > 100 µM

Ask | For the molecule shown here, O=C(O)[C@H]1C[C@H](c2nnn[nH]2)CN1 , give the reported IC50.
Reply | > 100 µM

Ask | For the molecule shown here, O=C(O)[C@H]1CN[C@H](C(=O)O)C1 , give the reported IC50.
Reply | > 100 µM

---

Listed molecules paired with reported pIC50
SYSTEM_NAME: Glutamate receptor ionotropic, AMPA (Rattus norvegicus, UniProt P19490+P19491+P19492+P19493)
METHOD: Tested for the ability to displace [3H]AMPA (5 nM) from Ionotropic glutamate receptor AMPA in rat forebrain membranes
pIC50: −log10 of the molar value.

// below: answered molecules
O=C(O)[C@@H]1C[C@@H](c2nnn[nH]2)CN1; 5.47
O=C(O)[C@H]1C[C@H](c2nnn[nH]2)CN1; < 4.00

Next molecule, please.
Ask | For the molecule shown here, O=C(O)[C@H]1CN[C@H](C(=O)O)C1 , give the reported pIC50.
Reply | < 4.00
